assay: Drug uptake in human HepG2 cells assessed as doxorubicin conjugates accumulation at 10 uM after 6 hrs by fluorescence assay; assay type: ADME, cell-based; conditions: hepg2, 6 h
parameter measured: Drug uptake

test smiles	recorded value
COc1cccc2c1C(=O)c1c(O)c3c(c(O)c1C2=O)C[C@@](O)(C(=O)CO)C[C@@H]3O[C@H]1C[C@H](NC(=O)CCCc2cn(CCO[C@@H]3O[C@H](CO)[C@H](O)[C@H](O)[C@H]3NC(C)=O)nn2)[C@H](O)[C@H](C)O1	Active
COc1cccc2c1C(=O)c1c(O)c3c(c(O)c1C2=O)C[C@@](O)(C(=O)CO)C[C@@H]3O[C@H]1C[C@H](NC(=O)CCCc2cn([C@@H]3O[C@H](CO)[C@H](O)[C@H](O)[C@H]3NC(C)=O)nn2)[C@H](O)[C@H](C)O1	Active
C=CCO[C@@H]1O[C@H](Cn2cc(CCCC(=O)N[C@H]3C[C@H](O[C@H]4C[C@](O)(C(=O)CO)Cc5c(O)c6c(c(O)c54)C(=O)c4c(OC)cccc4C6=O)O[C@@H](C)[C@H]3O)nn2)[C@H](O)[C@H](O)[C@H]1NC(C)=O	Active

These entries and their values trace back to ChEMBL document CHEMBL4184088.
